# PROTOCOL_NOTES: Chemical stability in phosphate buffer at 37° C.
# Type: physicochemical
# DETAILS: phosphate buffer pH 5.0, 37° C.; read-out: t1/2 (d) phosphate buffer pH 5.0 (converted)
Assignment: determine reported half-life for the given compounds.
Just the number in days, nothing appended.

Inquiry: Fill in the blank: the reported half-life of CC(=O)Oc1ccc2c(c1)C(Cc1c[nH]cn1)CC2.Cl (stereo not drawn) is ____.
Reply text: 23

Inquiry: What value of measured half-life is listed for CC(C)(C)C(=O)Oc1ccc2c(c1)C(Cc1c[nH]cn1)CC2.Cl (stereo not drawn) ?
Reply text: 310

Inquiry: # half-life lookup, item CCCC(=O)Oc1ccc2c(c1)C(Cc1c[nH]cn1)CC2.Cl (stereo not drawn)
Reply text: 49

###

# PROTOCOL_NOTES: Chemical stability in phosphate buffer at 37° C.
# Format: physicochemical
# DETAILS: phosphate buffer pH 7.4, 37° C.; read-out: t1/2 (d) phosphate buffer pH 7.4 (converted)
Hi there, I'd appreciate the recorded half-life for every entry that follows.
Expressed in days, but write only the number.

Inquiry: Please report the recorded half-life for CCCC(=O)Oc1ccc2c(c1)C(Cc1c[nH]cn1)CC2.Cl (stereo not drawn) .
Reply text: 2.5

Inquiry: Form field: reported half-life of CC(=O)Oc1ccc2c(c1)C(Cc1c[nH]cn1)CC2.Cl (stereo not drawn)
Reply text: 1.1

Inquiry: Look at this compound and give its reported half-life. CC(C)(C)C(=O)Oc1ccc2c(c1)C(Cc1c[nH]cn1)CC2.Cl (stereo not drawn)
Reply text: 31
